# TEST_SYSTEM: USP7 (Homo sapiens (Human), UniProt Q93009)
# Sequence (Q93009 208-1102): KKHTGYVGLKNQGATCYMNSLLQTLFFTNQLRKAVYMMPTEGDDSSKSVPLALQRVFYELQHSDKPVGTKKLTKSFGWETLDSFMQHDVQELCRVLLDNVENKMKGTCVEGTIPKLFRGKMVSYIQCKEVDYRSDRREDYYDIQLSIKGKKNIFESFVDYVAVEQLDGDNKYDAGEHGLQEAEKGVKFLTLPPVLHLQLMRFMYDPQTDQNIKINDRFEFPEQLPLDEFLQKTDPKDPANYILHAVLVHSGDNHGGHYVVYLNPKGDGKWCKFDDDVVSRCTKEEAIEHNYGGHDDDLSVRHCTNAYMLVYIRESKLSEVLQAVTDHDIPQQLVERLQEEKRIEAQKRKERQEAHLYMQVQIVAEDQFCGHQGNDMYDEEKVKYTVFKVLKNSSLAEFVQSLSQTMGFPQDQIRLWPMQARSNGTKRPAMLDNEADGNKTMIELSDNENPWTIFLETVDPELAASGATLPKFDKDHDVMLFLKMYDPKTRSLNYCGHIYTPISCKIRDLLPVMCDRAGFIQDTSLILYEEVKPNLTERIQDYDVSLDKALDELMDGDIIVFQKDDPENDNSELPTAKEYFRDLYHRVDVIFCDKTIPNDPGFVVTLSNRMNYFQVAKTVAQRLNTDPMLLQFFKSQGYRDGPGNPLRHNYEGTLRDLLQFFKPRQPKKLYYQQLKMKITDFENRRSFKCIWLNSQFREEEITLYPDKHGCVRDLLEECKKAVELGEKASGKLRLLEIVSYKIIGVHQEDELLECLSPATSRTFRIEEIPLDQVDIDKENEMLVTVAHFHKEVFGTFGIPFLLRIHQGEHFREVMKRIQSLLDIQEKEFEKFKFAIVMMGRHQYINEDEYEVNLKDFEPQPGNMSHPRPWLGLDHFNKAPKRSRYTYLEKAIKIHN
# ASSAY_NOTES: USP7 Assay B (Ubitquin-Rhodamine110 Assay)
# Format: biochemical
# SETTINGS: Ub-Rh110 substrate 25 nM
# Description: Stock compound solutions were stored at −20° C. as 10 mM in DMSO. […] Prestamped assay plates were allowed to come to room temperature on the day of the assay. […] Plates were incubated stacked for either 23 or 45 minutes at room temperature before fluorescence was read on the Envision (Excitation at 485 nm and Emission at 535 nm; Perkin Elmer) or on the PheraSTAR (Excitation at 485 nm and Emission at 535 nm; BMG Labtech). […]
# reported IC50; entries follow
READOUT_LABEL: IC50

INSERT INTO assay_data (compound, test_system, value_measured) VALUES
  ('Cc1ccc2c(=O)n(CC3(O)CCN(C(=O)C(C)Cc4ccccc4)CC3)cnn12 (stereo not shown)', 'USP7 (Homo sapiens (Human), UniProt Q93009)', '1 to 10 µM'),
  ('CC(=O)Nc1cc2c(=O)n(CC3(O)CCN(C(=O)C[C@@H](C)c4ccccc4)CC3)cnn2c1', 'USP7 (Homo sapiens (Human), UniProt Q93009)', '0.2 to 1 µM'),
  ('N#Cc1ccccc1-c1cccc(C(=O)N2CCC(O)(Cn3cnn4cccc4c3=O)CC2)c1', 'USP7 (Homo sapiens (Human), UniProt Q93009)', '> 10 µM'),
  ('COc1cccc(-c2cccc(C(=O)N3CCC(O)(Cn4cnn5cccc5c4=O)CC3)c2)c1', 'USP7 (Homo sapiens (Human), UniProt Q93009)', '> 10 µM'),
  ('O=C(NCc1ccccc1F)Nc1cc2c(=O)n(CC3(O)CCN(C(=O)C4CC4)CC3)cnn2c1', 'USP7 (Homo sapiens (Human), UniProt Q93009)', '> 10 µM'),
  ('O=C(Nc1cc2c(=O)n(CC3(O)CCN(C(=O)C4CC4)CC3)cnn2c1)c1ccccc1OC(F)(F)F', 'USP7 (Homo sapiens (Human), UniProt Q93009)', '> 10 µM'),
  ('CC(C)c1ccc(-c2cccc(C(=O)N3CCC(O)(Cn4cnn5cccc5c4=O)CC3)c2)cc1', 'USP7 (Homo sapiens (Human), UniProt Q93009)', '> 10 µM');

---

# reported IC50; entries follow
# TEST_SYSTEM: USP7 (Homo sapiens (Human), UniProt Q93009)
# ASSAY_NOTES: USP7 Assay B (Ubitquin-Rhodamine110 Assay)
# Assay type: biochemical
# SETTINGS: Ub-Rh110 substrate 25 nM
READOUT_LABEL: IC50

INSERT INTO results (molecule, value_measured) VALUES
  ('COc1cccc(NC(=O)Nc2cc3c(=O)n(CC4(O)CCN(C(=O)C5CC5)CC4)cnn3c2)c1 [Compound I-101]', '> 10 µM'),
  ('Cc1ccc(C(=O)Nc2cc3c(=O)n(CC4(O)CCN(C(=O)C5CC5)CC4)cnn3c2)cc1C [Compound I-107]', '1 to 10 µM'),
  ('C[C@H](CC(=O)N1CCC(O)(Cn2cnn3cccc3c2=O)CC1)c1ccccc1 [Compound I-56]', '< 0.2 µM'),
  ('O=C(c1ccc(Cn2nnc3ccccc32)cc1)N1CCC(O)(Cn2cnn3cccc3c2=O)CC1 [Compound I-68]', '1 to 10 µM'),
  ('C=C(C)C(=O)Nc1ccccc1-c1ccc(C(=O)N2CCC(O)(Cn3cnn4cccc4c3=O)CC2)cc1 [Compound I-114]', '1 to 10 µM'),
  ('Cc1ccccc1-c1cccc(C(=O)N2CCC(O)(Cn3cnn4cccc4c3=O)CC2)c1 [Compound I-6]', '1 to 10 µM'),
  ('Cc1ccc2cc(-c3ccc(C(=O)N4CCC(O)(Cn5cnn6cccc6c5=O)CC4)cc3)ccc2n1 [Compound I-45]', '1 to 10 µM'),
  ('CC(C)(c1ccccc1)c1ccc(C(=O)N2CCC(O)(Cn3cnn4cccc4c3=O)CC2)cc1 [Compound I-55]', '1 to 10 µM'),
  ('O=C(c1ccc(-c2ccc3ncccc3c2)cc1)N1CCC(O)(Cn2cnn3cccc3c2=O)CC1 [Compound I-43]', '1 to 10 µM'),
  ('O=C(c1cccc(-c2ccccc2)c1)N1CCC(O)(Cn2cnn3cccc3c2=O)CC1 [Compound I-11]', '1 to 10 µM'),
  ('O=C(c1ccc(-c2cnc3ccccc3c2)cc1)N1CCC(O)(Cn2cnn3cccc3c2=O)CC1 [Compound I-42]', '1 to 10 µM'),
  ('CC(CC(=O)N1CCC(O)(Cn2cnn3cc(Cl)cc3c2=O)CC1)c1ccccc1 (stereo not shown) [Compound I-49]', '1 to 10 µM'),
  ('CCN(c1ccccc1)c1ccc(C(=O)N2CCC(O)(Cn3cnn4cccc4c3=O)CC2)cc1 [Compound I-72]', '1 to 10 µM'),
  ('O=C(c1ccccc1-c1ccccc1)N1CCC(O)(Cn2cnn3cccc3c2=O)CC1 [Compound I-2]', '> 10 µM'),
  ('Cc1cccc(NC(=O)Nc2cc3c(=O)n(CC4(O)CCN(C(=O)C5CC5)CC4)cnn3c2)c1 [Compound I-86]', '> 10 µM'),
  ('O=C(c1cccc(-c2cccc(Cl)c2)c1)N1CCC(O)(Cn2cnn3cccc3c2=O)CC1 [Compound I-13]', '1 to 10 µM');

---

# TEST_SYSTEM: USP7 (Homo sapiens (Human))
# ASSAY_NOTES: USP7 Assay B (Ubitquin-Rhodamine110 Assay)
# Type: biochemical
# SETTINGS: Ub-Rh110 substrate 25 nM
# reported IC50; entries follow
READOUT_LABEL: IC50

INSERT INTO results (entry_smiles, value_measured) VALUES
  ('Cc1cc(C(F)(F)F)nn1Cc1ccc(C(=O)N2CCC(O)(Cn3cnn4cccc4c3=O)CC2)cc1', '1 to 10 µM'),
  ('O=C(c1cnc(-c2ccccc2)o1)N1CCC(O)(Cn2cnn3cccc3c2=O)CC1', '> 10 µM'),
  ('CC(C)(C#N)c1ccc(C(=O)N2CCC(O)(Cn3cnn4cccc4c3=O)CC2)cc1', '> 10 µM'),
  ('O=C(c1cccc(-c2ccc3c(c2)OCO3)c1)N1CCC(O)(Cn2cnn3cccc3c2=O)CC1', '1 to 10 µM');

---

# reported IC50; entries follow
# TEST_SYSTEM: USP7 (Homo sapiens (Human), UniProt Q93009)
# ASSAY_NOTES: USP7 Assay B (Ubitquin-Rhodamine110 Assay)
# Type: biochemical
# SETTINGS: Ub-Rh110 substrate 25 nM
READOUT_LABEL: IC50

INSERT INTO assay_data (entry_smiles, test_system, value_measured) VALUES
  ('O=C(c1ccc(-c2ccc3ncnn3c2)cc1)N1CCC(O)(Cn2cnn3cccc3c2=O)CC1', 'USP7 (Homo sapiens (Human), UniProt Q93009)', '> 10 µM'),
  ('O=C(c1ccccc1-c1ccsc1)N1CCC(O)(Cn2cnn3cccc3c2=O)CC1', 'USP7 (Homo sapiens (Human), UniProt Q93009)', '> 10 µM'),
  ('O=C(NC1CCCC1)c1cccc(-c2cccc(C(=O)N3CCC(O)(Cn4cnn5cccc5c4=O)CC3)c2)c1', 'USP7 (Homo sapiens (Human), UniProt Q93009)', '> 10 µM'),
  ('O=C(c1ccc(Cn2cnc3ccccc32)cc1)N1CCC(O)(Cn2cnn3cccc3c2=O)CC1', 'USP7 (Homo sapiens (Human), UniProt Q93009)', '1 to 10 µM'),
  ('Cc1cc(C)n(Cc2ccc(C(=O)N3CCC(O)(Cn4cnn5cccc5c4=O)CC3)cc2)n1', 'USP7 (Homo sapiens (Human), UniProt Q93009)', '1 to 10 µM'),
  ('C[C@@H](NC(=O)Nc1cc2c(=O)n(CC3(O)CCN(C(=O)C4CC4)CC3)cnn2c1)c1ccccc1', 'USP7 (Homo sapiens (Human), UniProt Q93009)', '> 10 µM'),
  ('COc1ccc(OC)c(-c2ccc(C(=O)N3CCC(O)(Cn4cnn5cccc5c4=O)CC3)cc2)c1', 'USP7 (Homo sapiens (Human), UniProt Q93009)', '> 10 µM'),
  ('CN(C)C(=O)c1ccc(-c2ccc(C(=O)N3CCC(O)(Cn4cnn5cccc5c4=O)CC3)c(Cl)c2)cc1', 'USP7 (Homo sapiens (Human), UniProt Q93009)', '> 10 µM'),
  ('Cn1c(-c2cccc(C(=O)N3CCC(O)(Cn4cnn5cccc5c4=O)CC3)c2)cc2ccccc21', 'USP7 (Homo sapiens (Human), UniProt Q93009)', '0.2 to 1 µM'),
  ('Cc1cccc(NC(=O)Nc2cc3c(=O)n(CC4(O)CCN(C(=O)C5CC5)CC4)cnn3c2)c1C', 'USP7 (Homo sapiens (Human), UniProt Q93009)', '> 10 µM'),
  ('O=C(c1ccc(Cn2cccn2)cc1)N1CCC(O)(Cn2cnn3cccc3c2=O)CC1', 'USP7 (Homo sapiens (Human), UniProt Q93009)', '1 to 10 µM'),
  ('O=C(c1ccc(S(=O)(=O)c2ccccc2)cc1)N1CCC(O)(Cn2cnn3cccc3c2=O)CC1', 'USP7 (Homo sapiens (Human), UniProt Q93009)', '1 to 10 µM'),
  ('O=C(Nc1cccc(Cl)c1)Nc1cc2c(=O)n(CC3(O)CCN(C(=O)C4CC4)CC3)cnn2c1', 'USP7 (Homo sapiens (Human), UniProt Q93009)', '> 10 µM'),
  ('O=C(Nc1cc2c(=O)n(CC3(O)CCN(C(=O)C4CC4)CC3)cnn2c1)c1ccc(C(F)(F)F)cc1', 'USP7 (Homo sapiens (Human), UniProt Q93009)', '> 10 µM'),
  ('CN(C)C(=O)c1ccc(-c2ccc(C(=O)N3CCC(O)(Cn4cnn5cccc5c4=O)CC3)cc2)cc1', 'USP7 (Homo sapiens (Human), UniProt Q93009)', '1 to 10 µM');
